Item-by-item account of %inhibition
- MEASURED ON: SARS-CoV-2 Mac1 (Severe acute respiratory syndrome coronavirus 2, UniProt P0DTD1)
- ASSAY PROCEDURE: biochemical
- CONDITION SUMMARY: 100 µM; inhibitor
Counter-ions that a name gives are not always drawn.

[
  {
    "MOLECULE": "NC(=O)c1cccc2cn(-c3ccc([C@@H]4CCCNC4)cc3)nc12 [Niraparib (MK-4827) tosylate]",
    "%inhibition, %": 14.33
  },
  {
    "MOLECULE": "CN1CCc2nc(C(=O)N[C@@H]3C[C@@H](C(=O)N(C)C)CC[C@@H]3NC(=O)C(=O)Nc3ccc(Cl)cn3)sc2C1 [Edoxaban tosylate Monohydrate]",
    "%inhibition, %": 20.23
  },
  {
    "MOLECULE": "CNCC[C@H](Oc1cccc2ccccc12)c1cccs1 [Duloxetine HCl]",
    "%inhibition, %": 0
  },
  {
    "MOLECULE": "Cc1cccc(C)c1NC(=O)C1CCCCN1C (stereo not shown) [Mepivacaine]",
    "%inhibition, %": 0
  },
  {
    "MOLECULE": "C[C@H]1c2cccc(O)c2C(=O)C2=C(O)[C@]3(O)C(=O)C(C(N)=O)=C(O)[C@@H](N(C)C)[C@@H]3[C@@H](O)[C@@H]21 [Doxycycline]",
    "%inhibition, %": 4.525
  },
  {
    "MOLECULE": "Cc1cc(C)nc(NS(=O)(=O)c2ccc(N)cc2)n1 [Sulfamethazine Sodium Salt]",
    "%inhibition, %": 12.6
  },
  {
    "MOLECULE": "CO/N=C(\\C(=O)N[C@@H]1C(=O)N2C(C(=O)O)=C(CSc3nc(=O)c(O)nn3C)CS[C@H]12)c1csc(N)n1 [Ceftriaxone Sodium Trihydrate]",
    "%inhibition, %": 0.1034
  },
  {
    "MOLECULE": "CO/N=C(\\C(=O)N[C@@H]1C(=O)N2C(C(=O)O)=C(CSC(=O)c3ccco3)CS[C@H]12)c1csc(N)n1 [Ceftiofur]",
    "%inhibition, %": 0
  },
  {
    "MOLECULE": "O=C(O)/C=C/c1ccc(Cn2ccnc2)cc1 [Ozagrel sodium]",
    "%inhibition, %": 1.667
  },
  {
    "MOLECULE": "Nc1c(Br)cc(Br)cc1CN[C@H]1CC[C@H](O)CC1 [Ambroxol HCl]",
    "%inhibition, %": 9.799
  },
  {
    "MOLECULE": "N#CC[C@H](C1CCCC1)n1cc(-c2ncnc3[nH]ccc23)cn1 [Ruxolitinib (INCB018424)]",
    "%inhibition, %": 0
  },
  {
    "MOLECULE": "Nc1c2c(nc3ccccc13)CCCC2 [Tacrine hydrochloride hydrate]",
    "%inhibition, %": 12.09
  },
  {
    "MOLECULE": "C/C(=C\\C(=O)OCCCCCCCCC(=O)O)C[C@@H]1OC[C@H](C[C@@H]2O[C@H]2[C@@H](C)[C@H](C)O)[C@@H](O)[C@H]1O [Mupirocin calcium]",
    "%inhibition, %": 3.887
  },
  {
    "MOLECULE": "COCCc1ccc(OCC(O)CNC(C)C)cc1 (stereo not shown) [Metoprolol succinate]",
    "%inhibition, %": 1.216
  },
  {
    "MOLECULE": "C#Cc1cccc(Nc2ncnc3cc(OCCOC)c(OCCOC)cc23)c1 [Erlotinib]",
    "%inhibition, %": 10.85
  },
  {
    "MOLECULE": "COc1ccc2cc3[n+](cc2c1OC)CCc1cc2c(cc1-3)OCO2 [Berberine chloride]",
    "%inhibition, %": 8.063
  }
]

* * *

- MEASURED ON: SARS-CoV-2 Mac1 (Severe acute respiratory syndrome coronavirus 2)
- ASSAY PROCEDURE: biochemical
- CONDITION SUMMARY: read-out: %inhibition
Structures can show the parent of a compound that is named as a salt.
Recorded inhibition at 100 µM values for a group of molecules are listed next.

[
  {
    "MOLECULE": "COc1nc(N)nc2c1ncn2[C@@H]1O[C@H](CO)[C@@H](O)[C@@H]1O",
    "inhibition at 100 µM / %": 50.5
  },
  {
    "MOLECULE": "O=C(/C=C/C=C/c1ccc2c(c1)OCO2)N1CCCCC1",
    "inhibition at 100 µM / %": 0
  },
  {
    "MOLECULE": "Cn1cnc2c(F)c(Nc3ccc(Br)cc3Cl)c(C(=O)NOCCO)cc21",
    "inhibition at 100 µM / %": 24.4
  },
  {
    "MOLECULE": "CC(=O)N1CCN(c2ccc(OC[C@@H]3CO[C@@](Cn4ccnc4)(c4ccc(Cl)cc4Cl)O3)cc2)CC1 (racemic)",
    "inhibition at 100 µM / %": 19.1
  },
  {
    "MOLECULE": "CC(C)c1c(C(=O)Nc2ccccc2)c(-c2ccccc2)c(-c2ccc(F)cc2)n1CC[C@@H](O)C[C@@H](O)CC(=O)O",
    "inhibition at 100 µM / %": 0
  },
  {
    "MOLECULE": "CC(C)C(Br)C(=O)NC(N)=O (stereo not shown)",
    "inhibition at 100 µM / %": 0
  },
  {
    "MOLECULE": "NC[C@@H]1O[C@H](O[C@H]2[C@@H](O)[C@H](O[C@@H]3[C@@H](O)[C@H](N)C[C@H](N)[C@H]3O[C@H]3O[C@H](CO)[C@@H](O)[C@H](O)[C@H]3N)O[C@@H]2CO)[C@H](N)[C@@H](O)[C@@H]1O [Paromomycin Sulfate]",
    "inhibition at 100 µM / %": 0.814
  }
]

* * *

- MEASURED ON: SARS-CoV-2 Mac1 (Severe acute respiratory syndrome coronavirus 2, UniProt P0DTD1)
- ASSAY PROCEDURE: biochemical
- CONDITION SUMMARY: read-out: %inhibition
Counter-ions that a name gives are not always drawn.
# maps each entry to its inhibition at 100 µM
OUTCOME MEASURE: inhibition at 100 µM (%)

[
  {
    "COMPOUND": "C[C@]12CC[C@@H]3c4ccc(O)cc4CC[C@H]3[C@@H]1CC[C@@H]2OC(=O)CCC1CCCC1 [Estradiol Cypionate]",
    "RECORDED NUMBER": 0
  },
  {
    "COMPOUND": "CCc1c(Cl)c(O)c(Cl)c(O)c1C(=O)O[C@H]1[C@H](O)[C@H](OC)[C@H](OC/C2=C\\C=C\\C[C@H](O)/C(C)=C/[C@H](CC)[C@@H](O[C@@H]3OC(C)(C)[C@@H](OC(=O)C(C)C)[C@H](O)[C@@H]3O)/C(C)=C/C(C)=C/C[C@@H]([C@@H](C)O)OC2=O)O[C@@H]1C [Fidaxomicin]",
    "RECORDED NUMBER": 5.76
  },
  {
    "COMPOUND": "CNC(C)Cc1ccccc1OC (centres unmarked) [Methoxyphenamine Hydrochloride]",
    "RECORDED NUMBER": 0
  },
  {
    "COMPOUND": "CC[C@H](C)C[C@H](C)CCCCCCCCC(=O)N[C@H]1C[C@@H](O)[C@@H](NCCN)NC(=O)[C@@H]2[C@@H](O)CCN2C(=O)[C@H]([C@H](O)CCN)NC(=O)[C@H]([C@H](O)[C@@H](O)c2ccc(O)cc2)NC(=O)[C@@H]2C[C@@H](O)CN2C(=O)[C@H]([C@@H](C)O)NC1=O [Caspofungin Acetate]",
    "RECORDED NUMBER": 0
  },
  {
    "COMPOUND": "C[C@]12CCC(=O)C=C1CC[C@@H]1[C@@H]2[C@@H](O)C[C@@]2(C)[C@H]1CC[C@]2(O)C(=O)CO [Hydrocortisone]",
    "RECORDED NUMBER": 5.07
  },
  {
    "COMPOUND": "COc1ccc2cccc(CCNC(C)=O)c2c1 [Agomelatine]",
    "RECORDED NUMBER": 36.5
  },
  {
    "COMPOUND": "Cc1[nH]c2ccccc2c1CCNCc1ccc(/C=C/C(=O)NO)cc1 [Panobinostat (LBH589)]",
    "RECORDED NUMBER": 7.31
  },
  {
    "COMPOUND": "COc1cc(C(=O)NC2CCCNC2)cc(OC)c1OC (centres unmarked) [Troxipide]",
    "RECORDED NUMBER": 19.2
  },
  {
    "COMPOUND": "COC(=O)N[C@H](C(=O)N1CCC[C@H]1c1nc(-c2ccc3c(c2)O[C@@H](c2ccccc2)n2c-3cc3cc(-c4c[nH]c([C@@H]5CCCN5C(=O)[C@@H](NC(=O)OC)C(C)C)n4)ccc32)c[nH]1)C(C)C [Elbasvir]",
    "RECORDED NUMBER": 8.16
  },
  {
    "COMPOUND": "O=C(O)CC(O)(CC(=O)O)C(=O)O [Citric acid trilithium salt tetrahydrate]",
    "RECORDED NUMBER": 0
  },
  {
    "COMPOUND": "CCCc1cc(=O)[nH]c(=S)[nH]1 [Propylthiouracil]",
    "RECORDED NUMBER": 11.2
  },
  {
    "COMPOUND": "CCCSc1ccc2[nH]c(NC(=O)OC)nc2c1 [Albendazole]",
    "RECORDED NUMBER": 0
  },
  {
    "COMPOUND": "CC(C)NCC(O)c1ccccc1Cl (centres unmarked) [Clorprenaline HCl]",
    "RECORDED NUMBER": 7.59
  },
  {
    "COMPOUND": "Nc1nccs1 [Aminothiazole]",
    "RECORDED NUMBER": 1.18
  }
]

All values here come from paper doi:10.1101/2021.10.07.463234v2.
